In this section we review reported melting point values for a set of compounds.

The examples below pair each entry with its known result.
>>> assay_result("O=Cc1ccccc1OC1CCOCC1")
"67 to 70 °C"
>>> assay_result("CCOC(=O)c1ccsc1N")
"42 to 44 °C"
>>> assay_result("Cc1cc(C)n2nc(SCc3ccccc3)nc2n1")
"135 to 136 °C"
>>> assay_result("Oc1nnc(C2c3ccccc3Oc3ccccc32)o1")
"335 to 337 °C"

What does the record list as melting point for `Fc1cc(CCl)c2c(c1)COCO2` ? 78 to 80 °C

* * *

OBSERVED PROPERTY: melting point

The examples below pair each entry with its known result.
>>> assay_result("O=C(Nc1cccnc1Cl)c1ccccc1Cl")
"115 to 117 °C"
>>> assay_result("CCc1c(C)nc(NC(=O)NS(=O)(=O)c2cccs2)nc1Cl")
"126 to 127 °C"
>>> assay_result("O=C(CBr)c1cc2cc(Br)ccc2o1")
"140 to 141 °C"
>>> assay_result("O=C(O)C(F)(F)C(F)(F)C(F)(F)C(F)(F)C(F)(F)C(F)(F)C(F)(F)C(F)(F)C(F)(F)C(F)(F)C(F)(F)C(F)(F)C(F)(F)C(F)(F)C(F)(F)F")
"154 to 155 °C"

What does the record list as melting point for `Cc1c(O)c(C)c(CCl)c(C)c1CCl` ? 135 to 140 °C

What does the record list as melting point for `CCOC(=O)c1cnn(-c2ccc(Cl)cc2)c1C(F)(F)F` ? 50 to 52 °C

What does the record list as melting point for `Nc1c(C(=O)O)sc2nc(-c3ccccc3)cc(C(F)(F)F)c12` ? 159 to 161 °C

* * *

OBSERVED PROPERTY: melting point

The examples below pair each entry with its known result.
>>> assay_result("O=P(Oc1ccccc1)(Oc1ccccc1)Oc1noc2ccccc12")
"64 to 68 °C"
>>> assay_result("Cc1ccc(Cc2c(N)nn3c(C)cc(C)nc23)cc1")
"178 to 179 °C"
>>> assay_result("Cn1c(C(=O)O)ccc1S(N)(=O)=O")
"210 to 212 °C"
>>> assay_result("Cc1cc(C(=O)CCl)c(C)n1-c1ccccc1")
"93 to 94 °C"

Continue with the compound presented below.
What does the record list as melting point for `C#CCn1ccc2cc(C(=O)OC)ccc21` ? 94 to 96 °C

* * *

In this section we review reported melting point values for a set of compounds.

The examples below pair each entry with its known result.
>>> assay_result("Cc1cc(C)n(CN(Cc2ccccc2)Cn2nc(C)cc2C)n1")
"71 °C"
>>> assay_result("O=C1c2ccccc2C(=O)C1(CN1CCOCC1)c1ccccc1")
"88 °C"

What does the record list as melting point for `COc1ccccc1C(O)=C1C(=O)CN(C(C)C)C1=O` ? 99 to 100 °C

What does the record list as melting point for `ClCc1noc(-c2cccs2)n1` ? 67 to 68 °C

What does the record list as melting point for `O=CC(Br)=Cc1ccccc1` ? 70 °C

What does the record list as melting point for `Nc1cccc(F)c1C(=O)O` ? 170 to 172 °C

* * *

In this section we review reported melting point values for a set of compounds.

The examples below pair each entry with its known result.
>>> assay_result("Cc1nnc(SCC2=C(C(=O)O)N3C(=O)C(NC(=O)Cn4cnnn4)C3SC2)s1 (stereo unspecified)")
"198 °C"
>>> assay_result("COc1cccc(CC(C)=O)c1")
"258 to 260 °C"
>>> assay_result("COc1ccc(C(=O)c2cccc(OC)c2OC)cc1OC")
"118 to 120 °C"
>>> assay_result("CC12CCC(O)(CC1)CC2=O")
"55 to 56 °C"
>>> assay_result("O=C1CCCCCCCN1")
"78 °C"
>>> assay_result("CCOC(=O)c1nc(-c2ccc(S(=O)(=O)Cl)s2)no1")
"114 to 115 °C"
>>> assay_result("Nc1ccc(CC(N)C(=O)O)cc1 (racemic)")
"255 to 258 °C"
>>> assay_result("O=C(O)C(=Cc1cccc([N+](=O)[O-])c1)c1cccc([N+](=O)[O-])c1")
"150 to 160 °C"

What does the record list as melting point for `CCOC(=O)C(C)=O` ? -50 °C

What does the record list as melting point for N#CC1=C(N)Oc2c(c(C(F)(F)F)nn2-c2ccccc2)C1c1ccccc1Cl (stereo unspecified) ? 166 °C

What does the record list as melting point for `OC[C@@H](O)COCc1ccccc1` ? 24 to 27 °C

* * *

In this section we review reported melting point values for a set of molecules.

>>> assay_result("O=C(C=Cc1ccc(F)cc1)C=Cc1ccc(F)cc1")
"141 to 146 °C"
>>> assay_result("CC(=O)C1C(=O)c2cccc([N+](=O)[O-])c2C1=O (centres undefined)")
"147 to 150 °C"
>>> assay_result("Cc1csc2nc3ccccc3n12")
"161 to 163 °C"

What does the record list as melting point for `O=C1c2ccccc2C(=O)N1CCCO` ? 78 °C

* * *

In this section we review reported melting point values for a set of compounds.

>>> assay_result("NNC(=O)c1sc2ccccc2c1Cl")
"181 to 183 °C"
>>> assay_result("Cc1nc(-c2cc(C(=O)O)no2)cs1")
"166 to 167 °C"

What does the record list as melting point for `CCCc1c(O)c(C(C)=O)cc(C(C)=O)c1O` ? 99 to 100 °C

What does the record list as melting point for `CC(C)(Oc1ccc2ccccc2c1)C(=O)O` ? 123 to 124 °C

What does the record list as melting point for CCCCCCCCCCCCCC=CC(O)C(CO)NC(C)=O (centres undefined) ? 93 to 96 °C

* * *

In this section we review reported melting point values for a set of molecules.
Record the value in °C, omitting the unit from your answer.

>>> assay_result("C=C1C(=O)C23C(OC)CC4C5(C)CCCC4(COC5OC(C)=O)C2C(OC(C)=O)CC1C3OC(C)=O (stereo not given)")
214
>>> assay_result("COC(=O)c1ccc(C(N)=O)cc1")
206
>>> assay_result("OC1(C2(O)CCCCC2)CCCCC1")
127

What does the record list as melting point for CN1C(=O)c2ccccc2C1O (stereo not given) ? 133

* * *

In this section we review reported melting point values for a set of compounds.

>>> assay_result("CC(C)(C)OC(=O)N[C@H]1CCC[C@H]1C(=O)O (relative stereo)")
"90 to 94 °C"
>>> assay_result("Cc1c(C(=O)CBr)sc2ccccc12")
"98 to 99 °C"
>>> assay_result("CC(=O)O[C@H]1CCCC2=CC(=O)CC[C@@]21C")
"89 to 90 °C"
>>> assay_result("CC(C)C[C@H]1OC[C@@H](C)CO1")
"< -21 °C"
>>> assay_result("O=C(O)c1ccc(CN2CCCCC2)cc1")
"286 to 293 °C"
>>> assay_result("COC(=O)CSc1cc(C(F)(F)F)nc2ccccc12")
"96 to 98 °C"

What does the record list as melting point for CC(=O)OCC1OC(S)C(OC(C)=O)C(OC(C)=O)C1OC(C)=O (stereo not drawn) ? 114 to 119 °C

What does the record list as melting point for `COC(=O)c1ccc(N2CCCC2)nc1` ? 119 to 121 °C

What does the record list as melting point for `CC1=CCC(=O)Nc2c1cnn2-c1ccc(Cl)cc1` ? 177 to 178 °C

What does the record list as melting point for `O/N=C(/C=Cc1ccccc1)c1ccccc1` ? 115 to 116 °C

What does the record list as melting point for OCC1OC(OCC2OC(O)(CO)C(O)C2O)C(O)C(O)C1O (stereo not drawn) ? 125 to 128 °C

What does the record list as melting point for `N#Cc1ccc(Cn2cncn2)cc1` ? 69 to 72 °C

What does the record list as melting point for `O[C@@H]1CC2=C(CC=CC2)C[C@@H]1O` ? 139 to 140 °C

What does the record list as melting point for `CC(C)(C)OC(=O)NCC1CCN(Cc2ccccc2)CC1` ? 102 to 103 °C

What does the record list as melting point for CC1CCCC(C)C1 (stereo not drawn) ? -90.1 °C

What does the record list as melting point for `O=c1c(Cl)c(Cl)cnn1Cc1c(Cl)cccc1Cl` ? 158 to 160 °C

What does the record list as melting point for N#CC(c1ccc(O)cc1)N1CCOCC1 (stereo not drawn) ? 148 to 150 °C

* * *

OBSERVED PROPERTY: melting point (°C)
Record the value in °C, omitting the unit from your answer.

>>> assay_result("CCCC(=O)OC1(C(=O)CCl)C(C)CC2C3CCC4=CC(=O)C=CC4(C)C3(F)C(=O)CC21C (centres undefined)")
95

What does the record list as melting point for `O=[N+]([O-])c1ccc(O)c2ccccc12` ? 166

What does the record list as melting point for `CC(=O)n1c(-c2ccccc2)c(O)c2ccc([N+](=O)[O-])cc21` ? 179

What does the record list as melting point for `CS(=O)(=O)c1ccc2c(c1)N(CCCN1CCC(C(N)=O)CC1)c1ccccc1S2` ? 170

What does the record list as melting point for `c1ccc(C(c2ccccc2)(c2ccccc2)N2CCOCC2)cc1` ? 175

What does the record list as melting point for `Nc1ccc(S(=O)(=O)c2ccc(NCC(=O)O)cc2)cc1` ? 194

Data origin, for the record: a melting point compilation (Tetko et al.)
